B1: glmS ribozyme (parent)
chain: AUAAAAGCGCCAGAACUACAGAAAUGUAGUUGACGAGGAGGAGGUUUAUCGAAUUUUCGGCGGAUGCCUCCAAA

- Variants of: B1
- assay.procedure: self-cleavage kobs at 2500 uM GlcN6P; higher = faster cleavage; RNA array
- details: with glucosamine-6-phosphate
Variants at the floor of the assay were thinned out.
metric: self-cleavage kobs at 2500 uM GlcN6P

Recorded results for 4 variants are shown here.
AUAAAAGCGCCACAACUACAGAAAUGUAGUUGACGAGGAGGGGGUUUAUCGAAUUUUCGGCGGAUGCCUCCAAA [G13C A42G]
6.19e-05 s⁻¹
AUAAAACCGCCAGAACUACAGAAAUGUAGUUGACGAGGAGGAGGUUUAUCGAAUUUUCGGCGGAUGCCUACAAA [G7C C70A]
< 1e-05 s⁻¹
AUAAACGCGCCAGAACUACAGAAAUGUAGUUGACGAGGAGGAGGUUUAUCGAAUUUUCGGCCGAUGCCUCCAAA [A6C G62C]
< 1e-05 s⁻¹
AUAAAAGCGCCAGUACUACAGAAAUGUAGUUGACGAGGAGGAGGUUUAUCGAAUUUUCGGCGGAUGCUUCCAAA [A14U C68U]
0.000422 s⁻¹

Q: Given the variant AUAAAAGCGCCAGAACUACAGAAAUGUAGUUGACGAGGAGGAGGUUAAUCGAAUUUUCGACGGAUGCCUCCAAA [U47A G60A] , write its reported self-cleavage kobs at 2500 uM GlcN6P.
Ans: < 1e-05 s⁻¹

Q: Given the variant AUAAAAGCGCCAGAGCUACAGAAAUGUAGUUUACGAGGAGGAGGUUUAUCGAAUUUUCGGCGGAUGCCUCGAAA [A15G G32U C71G] , write its reported self-cleavage kobs at 2500 uM GlcN6P.
Ans: 8.85e-05 s⁻¹

Q: Given the variant AUAAAAGCGCUAGAACUACAGAAAUGUAGUUGACGAGGAGGAGGUUUAUCGAGUUUUCGGCGGAUGCCUCCAAA [C11U A53G] , write its reported self-cleavage kobs at 2500 uM GlcN6P.
Ans: 0.00111 s⁻¹

Q: Given the variant AUAAAAGCGCCAGACCUACAGAAAUGUAGUUGACGAGGAGGAGGUUUAUCGAAUUUUUGGCGGAUGCCUCCAAA [A15C C58U] , write its reported self-cleavage kobs at 2500 uM GlcN6P.
Ans: 2.9e-05 s⁻¹

Q: Given the variant AUAAAAGCGCCAGAACUACAGAAAUGUAGUAGACGAGGAGGAGGUUUAUCGAAAUUUCGGCGGAUGCCUCCAAA [U31A U54A] , write its reported self-cleavage kobs at 2500 uM GlcN6P.
Ans: 0.00508 s⁻¹

Q: Given the variant AUAAAGGCGCCAGAACUACAGAAAUGUAGUAGACGAGGAGGAGGUUUAUCGAAUUUUCGGCGGAUGCCUCCAAA [A6G U31A] , write its reported self-cleavage kobs at 2500 uM GlcN6P.
Ans: 0.000107 s⁻¹

Q: Given the variant AUAAAAGCGCCAAAACUACAGAAAUGUAGUUGACGAGGUGGAGGUUUAUCGAAUCUUCGGCGGAUGCCUCCAAA [G13A A39U U55C] , write its reported self-cleavage kobs at 2500 uM GlcN6P.
Ans: 0.000128 s⁻¹

Q: Given the variant AUAAAAGCGCCGGAACUACAGAAAUGUAGUUGACGCGAAGGAGGUUUAUCGAAUUUUCGGCGGUUGCCUCCAAA [A12G A36C G38A A64U] , write its reported self-cleavage kobs at 2500 uM GlcN6P.
Ans: < 1e-05 s⁻¹
